Quick reference: Stability (Arbitrary units) Cath D 4 h of the listed items.
Biological target: Cathepsin D (EC 3.4.23.5 from bovine spleen) (Bos taurus)
Procedure: The stability of the peptidomimetic compounds towards lysosomal degradation was examined by incubation with Cathepsin B1 (EC 3.4.22.1 from bovine spleen; Sigma-Aldrich, Taufkirchen; dissolved at 10000 U/l in ddH2O) and D (EC 3.4.23.5 from bovine spleen; Sigma-Aldrich, Taufkirchen; dissolved at 10000 U/l in ddH2O) for four hours at 37° C. using a compound concentration of 50 μM and an enzyme/substrate ratio of 0.4 U/μmol. […]
Square brackets hold non-standard residues; d marks the D form. Peptide text beside a SMILES is read from it. * marks the point of attachment. ξ: configuration not given here. Gly(1-amidinopiperidin-4-yl) = N=C(N)N1CCC([C@H](N)C(=O)O)CC1; Tic = O=C(O)[C@@H]1Cc2ccccc2CN1; Cha = N[C@@H](CC1CCCCC1)C(=O)O; NHPhenethyl = c1ccc(CCN*)cc1; ξDisc = O=C(O)C1NCc2ccccc21; Nle = CCCC[C@H](N)C(=O)O

Compound | Stability (Arbitrary units) Cath D 4 h
CSCC[C@H](NC(=O)C1c2ccccc2CN1C(=O)[C@@H](NC(=O)[C@H](CC1CCCCC1)NC(C)=O)C1CCN(C(=N)N)CC1)C(N)=O (stereo partly drawn) [Compound P66-1, Ac-Cha-Gpg-Disc-Met-NH2] (Ac-[Cha][Gly(1-amidinopiperidin-4-yl)][ξDisc]M-NH2) | 101
CCCC[C@H](NC(=O)[C@@H]1Cc2ccccc2CN1C(=O)[C@@H](NC(=O)[C@H](CC1CCCCC1)NC(C)=O)C1CCN(C(=N)N)CC1)C(=O)NCCc1ccccc1 [Compound P69, Ac-Cha-Gpg-Tic-Nle-N(H)CH2CH2Ph] (Ac-[Cha][Gly(1-amidinopiperidin-4-yl)][Tic][Nle]-NHPhenethyl) | 100

----------
Molecular target: Cathepsin B1 (EC 3.4.22.1 from bovine spleen) (Bos taurus)
Conditions: Cathepsin B, 4 h
Numbered stars: 1 amine (or outer) side, 2 acyl side, 3 side chain; on linkers, the order of the positions; unused ones are H or OH. Square brackets hold non-standard residues; d marks the D form. Peptide text beside a SMILES is read from it. * marks the point of attachment. ξ: configuration not given here. Gly(1-amidinopiperidin-4-yl) = N=C(N)N1CCC([C@H](N)C(=O)O)CC1; X1 = CC(C)c1oc([C@H](CO)N[*:1])nc1C(=O)[*:2]; Pro(3R-Ph) = O=C(O)[C@H]1NCC[C@@H]1c1ccccc1; N(Me)CH2CH2Ph = CN(CCc1ccccc1)*; Tic = O=C(O)[C@@H]1Cc2ccccc2CN1; Cha = N[C@@H](CC1CCCCC1)C(=O)O; NHPhenethyl = c1ccc(CCN*)cc1; NMe(benzyl) = CN(Cc1ccccc1)*; ξDisc = O=C(O)C1NCc2ccccc21; Nle = CCCC[C@H](N)C(=O)O; X6 = OCCN(CCc1ccccc1)*; NHBn = c1ccc(CN*)cc1
Quick reference: Stability (Arbitrary units) Cath B 4 h of the listed items.

Compound | Stability (Arbitrary units) Cath B 4 h
CCCC[C@H](NC(=O)[C@@H]1Cc2ccccc2CN1C(=O)[C@H](CCCNC(=N)N)NC(=O)[C@H](CC1CCCCC1)NC(C)=O)C(=O)N(CCO)CCc1ccccc1 [Compound P81, Ac-Cha-Arg-Tic-Nle-N(CH2CH2OH)CH2CH2Ph] (Ac-[Cha]R[Tic][Nle]-X6) | 99
CCCC[C@H](NC(=O)[C@@H]1Cc2ccccc2CN1C(=O)[C@@H](NC(=O)[C@H](CC1CCCCC1)NC(C)=O)C1CCN(C(=N)N)CC1)C(=O)NCc1ccccc1 [Compound P68, Ac-Cha-Gpg-Tic-Nle-N(H)Bn] (Ac-[Cha][Gly(1-amidinopiperidin-4-yl)][Tic][Nle]-NHBn) | 52
CCCC[C@H](NC(=O)[C@@H]1Cc2ccccc2CN1C(=O)[C@H](CCCNC(=N)N)NC(=O)[C@H](CC1CCCCC1)NC(C)=O)C(=O)N(C)CCc1ccccc1 [Compound P83, Ac-Cha-Arg-Tic-Nle-N(Me)CH2CH2Ph] (Ac-[Cha]R[Tic][Nle]-{N(Me)CH2CH2Ph}) | 100
CSCC[C@H](NC(=O)[C@@H]1Cc2ccccc2CN1C(=O)[C@@H](NC(=O)[C@H](CC1CCCCC1)NC(C)=O)C1CCN(C(=N)N)CC1)C(=O)N1CC[C@H](c2ccccc2)[C@H]1C(N)=O [Compound P80, Ac-Cha-Gpg-Tic-Met-βPhProNH2] (Ac-[Cha][Gly(1-amidinopiperidin-4-yl)][Tic]M[Pro(3R-Ph)]-NH2) | 90
CCCC[C@H](NC(=O)[C@@H]1Cc2ccccc2CN1C(=O)[C@@H](NC(=O)[C@H](CC1CCCCC1)NC(C)=O)C1CCN(C(=N)N)CC1)C(=O)N1CC[C@H](c2ccccc2)[C@H]1C(=O)N[C@@H](CO)c1nc(C(=O)N(C)C)c(C(C)C)o1 [Compound P53] (Ac-[Cha][Gly(1-amidinopiperidin-4-yl)][Tic][Nle][Pro(3R-Ph)][X1]-NMe2) | 97
CCCC[C@H](NC(=O)C1c2ccccc2CN1C(=O)[C@H](CCCNC(=N)N)NC(=O)[C@H](CC1CCCCC1)NC(C)=O)C(=O)N(C)Cc1ccccc1 (stereo partly drawn) [Compound P72-1, Ac-Cha-Arg-Disc-Nle-N(Me)Bn] (Ac-[Cha]R[ξDisc][Nle]-{NMe(benzyl)}) | 98
CCCC[C@H](NC(=O)[C@@H]1Cc2ccccc2CN1C(=O)[C@@H](NC(=O)[C@H](CC1CCCCC1)NC(C)=O)C1CCN(C(=N)N)CC1)C(=O)NCCc1ccccc1 [Compound P69, Ac-Cha-Gpg-Tic-Nle-N(H)CH2CH2Ph] (Ac-[Cha][Gly(1-amidinopiperidin-4-yl)][Tic][Nle]-NHPhenethyl) | 92

----------
Target: DR4Dw14 (DRA1*0101 DRB1*0404) (Homo sapiens, UniProt P01903+P01911, A100R/A169T/F76Y/I96L/K127E/L162R/M171V/N62H/P40V/Q125Y/R42H/S133A/S149N/S66Y/V209L/W38E)
Experiment: Competitive binding to MHC-II protein DR4Dw14
Details: 0404; read-out: Protein binding IC50 (nM) 0404
Numbered stars: 1 amine (or outer) side, 2 acyl side, 3 side chain; on linkers, the order of the positions; unused ones are H or OH. Square brackets hold non-standard residues; d marks the D form. Peptide text beside a SMILES is read from it. * marks the point of attachment. ξ: configuration not given here. Gly(1-amidinopiperidin-4-yl) = N=C(N)N1CCC([C@H](N)C(=O)O)CC1; X1 = CC(C)c1oc([C@H](CO)N[*:1])nc1C(=O)[*:2]; Pro(3R-Ph) = O=C(O)[C@H]1NCC[C@@H]1c1ccccc1; Met(O) = CS(=O)CC[C@H](N)C(=O)O; N(Me)CH2CH2Ph = CN(CCc1ccccc1)*; Tic = O=C(O)[C@@H]1Cc2ccccc2CN1; Cha = N[C@@H](CC1CCCCC1)C(=O)O; NMe(benzyl) = CN(Cc1ccccc1)*; ξDisc = O=C(O)C1NCc2ccccc21; Nle = CCCC[C@H](N)C(=O)O; X6 = OCCN(CCc1ccccc1)*
Measured metric: IC50 (nM)

Compound | Result number
CC(=O)N[C@@H](CC1CCCCC1)C(=O)N[C@H](C(=O)N1Cc2ccccc2C[C@H]1C(=O)N[C@@H](CC[S+](C)[O-])C(=O)N1CC[C@H](c2ccccc2)[C@H]1C(=O)N[C@@H](CO)c1nc(C(=O)N(C)C)c(C(C)C)o1)C1CCN(C(=N)N)CC1 (stereo partly drawn) [Compound P47] (Ac-[Cha][Gly(1-amidinopiperidin-4-yl)][Tic][Met(O)][Pro(3R-Ph)][X1]-NMe2) | 580
CCCC[C@H](NC(=O)C1c2ccccc2CN1C(=O)[C@H](CCCNC(=N)N)NC(=O)[C@H](CC1CCCCC1)NC(C)=O)C(=O)N(C)Cc1ccccc1 (stereo partly drawn) [Compound P72-1, Ac-Cha-Arg-Disc-Nle-N(Me)Bn] (Ac-[Cha]R[ξDisc][Nle]-{NMe(benzyl)}) | 1700
CSCC[C@H](NC(=O)C1c2ccccc2CN1C(=O)[C@@H](NC(=O)[C@H](CC1CCCCC1)NC(C)=O)C1CCN(C(=N)N)CC1)C(N)=O (stereo partly drawn) [Compound P66-1, Ac-Cha-Gpg-Disc-Met-NH2] (Ac-[Cha][Gly(1-amidinopiperidin-4-yl)][ξDisc]M-NH2) | 590
CSCC[C@H](NC(=O)[C@@H]1Cc2ccccc2CN1C(=O)[C@H](CCCNC(=N)N)NC(=O)[C@H](CC1CCCCC1)NC(C)=O)C(=O)N(C)CCc1ccccc1 [Compound P84, Ac-Cha-Arg-Tic-Met-N(Me)CH2CH2Ph] (Ac-[Cha]R[Tic]M-{N(Me)CH2CH2Ph}) | 14000
CSCC[C@H](NC(=O)[C@@H]1Cc2ccccc2CN1C(=O)[C@H](CCCNC(=N)N)NC(=O)[C@H](CC1CCCCC1)NC(C)=O)C(=O)N(CCO)CCc1ccccc1 [Compound P85, Ac-Cha-Arg-Tic-Met-N(CH2CH2OH)CH2CH2Ph] (Ac-[Cha]R[Tic]M-X6) | 31000
